Where these numbers come from: PubChem BioAssay (NCI)

test system: COLO 205 colon; assay: NCI tumour cell line growth inhibition, 48 h
// values below are reported TGI

molecule	TGI
COn1cc(C=O)c2ccccc21	> 100 µM
O=C(c1ccccc1)c1c(-c2ccccc2)[nH]n(-c2ccc([N+](=O)[O-])cc2)c(=O)c1=O	> 100 µM
CCOC(=O)c1nc2c(Cl)c3ncccc3cc2[nH]c1=O	> 100 µM
N#CC(NNC(=O)Cc1ccccc1)c1ccccc1O (stereo not drawn)	> 100 µM
COC(=O)[C@@H](NC(=O)[C@@H](OC)[C@@H]1Cc2cc3cc(OC4CC(OC5CC(O)C(O)C(C)O5)C(O)C(C)O4)c(C)c(O)c3c(O)c2C(=O)[C@H]1OC1CC(OC2CC(OC3CC(C)(O)C(O)C(C)O3)C(O)C(C)O2)C(O)C(C)O1)C(C)C (stereo partly drawn)	> 32.5 µM
CC(C)=CCS(=O)c1ccccc1NC1=CC(=O)CC(C)(C)C1 (stereo not drawn)	> 100 µM
COC1=C(Br)[C@H](O)[C@@]2(C=C1Br)CC(C(=O)NCCCCCN=C(N)N)=NO2	> 10 µM
O=C(CSc1nnc(-c2ccccc2NC(=O)C(F)(F)F)c(=O)[nH]1)NC(=O)Nc1ccccc1	> 100 µM
